subject.of.test: Ago2 wild type (Homo sapiens, UniProt Q9UKV8 1-859)
Sequence (Q9UKV8 whole entry): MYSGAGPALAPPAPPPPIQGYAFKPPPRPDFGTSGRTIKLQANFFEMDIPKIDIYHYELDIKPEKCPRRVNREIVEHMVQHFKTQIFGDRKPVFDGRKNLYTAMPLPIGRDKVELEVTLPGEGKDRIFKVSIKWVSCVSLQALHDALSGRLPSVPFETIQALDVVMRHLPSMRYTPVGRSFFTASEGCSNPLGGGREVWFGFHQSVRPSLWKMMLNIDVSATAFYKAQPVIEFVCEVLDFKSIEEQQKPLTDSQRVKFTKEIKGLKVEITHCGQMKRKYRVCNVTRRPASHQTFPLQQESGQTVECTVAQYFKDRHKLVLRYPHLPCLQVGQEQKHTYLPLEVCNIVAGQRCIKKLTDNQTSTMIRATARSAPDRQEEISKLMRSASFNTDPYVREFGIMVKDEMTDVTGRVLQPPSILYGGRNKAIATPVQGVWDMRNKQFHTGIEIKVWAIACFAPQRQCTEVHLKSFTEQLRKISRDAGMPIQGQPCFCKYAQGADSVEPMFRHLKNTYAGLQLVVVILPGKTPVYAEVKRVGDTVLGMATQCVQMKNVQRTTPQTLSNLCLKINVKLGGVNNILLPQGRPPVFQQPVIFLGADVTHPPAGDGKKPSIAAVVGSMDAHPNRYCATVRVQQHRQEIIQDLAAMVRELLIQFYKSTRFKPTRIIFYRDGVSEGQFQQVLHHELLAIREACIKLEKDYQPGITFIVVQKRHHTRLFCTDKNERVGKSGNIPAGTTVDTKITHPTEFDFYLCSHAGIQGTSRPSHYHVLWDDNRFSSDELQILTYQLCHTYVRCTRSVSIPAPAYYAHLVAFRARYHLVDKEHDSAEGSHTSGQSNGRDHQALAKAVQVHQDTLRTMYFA
method.description: filter binding; guide-loaded Ago2; target Kd; Filter binding: 30 mM Tris pH 8.0, 0.1 M K acetate, 2 mM Mg acetate, 0.5 mM TCEP, 0.005% NP-40, 0.01 mg/ml yeast tRNA, room temp, 45 min, 0.1 nM target; smFRET: 50 mM Tris pH 8.0, 50 mM NaCl, 60 mM KCl (RISC assembly buffer), 23 C
cond: protein: recombinant; tags: His6; guide g2-g9 pairs target nt 1-8; 3' overhangs; t1 = target nt 9
parameter.measured: Kd (nM)
Field: numeric (nM). Do not append units.

Solved entries:
>  <binder>
guide + t1G target (dsRNA, 5'-phosphate on guide) RNA 1: UUCACAUUGCCCAAGUCUCUU RNA 2: CAAUGUGAGAA

>  <reading>
1.9

$$$$
>  <binder>
guide + t1C target (dsRNA, 5'-phosphate on guide) RNA 1: UUCACAUUGCCCAAGUCUCUU RNA 2: CAAUGUGACAA

>  <reading>
1.8

$$$$
>  <binder>
guide + t1DAP target (dsRNA, 5'-phosphate on guide; target nt 9 = 2,6-diaminopurine (written A)) RNA 1: UUCACAUUGCCCAAGUCUCUU RNA 2: CAAUGUGAAAA

>  <reading>
0.45

$$$$
>  <binder>
guide + t1U target (dsRNA, 5'-phosphate on guide) RNA 1: UUCACAUUGCCCAAGUCUCUU RNA 2: CAAUGUGAUAA

>  <reading>
1.9

$$$$
>  <binder>
guide + t1m6A target (dsRNA, 5'-phosphate on guide; target nt 9 = N6-methyladenosine (written A)) RNA 1: UUCACAUUGCCCAAGUCUCUU RNA 2: CAAUGUGAAAA

>  <reading>
1.8

$$$$

Note: attention shifts to another entry.
For record guide + t1A target (dsRNA, 5'-phosphate on guide) RNA 1: UUCACAUUGCCCAAGUCUCUU RNA 2: CAAUGUGAAAA the listed Kd is 0.75

Origin of values: paper PMC4606517
